# Test system: COLO 205 colon
# procedure_details: NCI tumour cell line growth inhibition, 48 h; in the data active means GI50 below about 0.43 µM; inactive means the rest
Thanks in advance; please answer with one of these: true for active, false for inactive

Prompt: In this assay, the call recorded for `CCN1CCN(Cc2ccc(NC(=O)Nc3nc4ccc(Oc5ccnc(C(=O)NC)c5)cc4s3)cc2C(F)(F)F)CC1` was what?
Completion: false

Prompt: In this assay, the call recorded for Clc1cccc(N2CCN(CCCN3CCc4c([nH]c5ccccc45)C3c3cccnc3)CC2)c1 (centres undefined) was what?
Completion: false

Prompt: In this assay, the call recorded for `Cc1ncc(C(=O)Nc2ccc(CN3CCN(C)CC3)c(C(F)(F)F)c2)cc1C#Cc1ccc(N)nc1` was what?
Completion: true

Prompt: In this assay, the call recorded for `CN1CCN(Cc2ccc(NC(=O)c3cncc(C#Cc4cnc(N)cc4C#N)c3)cc2C(F)(F)F)CC1` was what?
Completion: false

Prompt: In this assay, the call recorded for CCCCCCCC(=O)OCCCC1[C@]2(C)CC[C@@]3(C)C([C@H](C)CCC=C(C)C)CC[C@]3(C)C2CC[C@]12OC2(C)C (some centres undefined) was what?
Completion: false

Prompt: In this assay, the call recorded for `O=C(/C=C/c1ccc(O)c(O)c1)NCc1c[nH]c2ccccc12` was what?
Completion: false

Prompt: In this assay, the call recorded for `Cn1cccc1-c1cc(-c2ccccc2)[nH]c(=O)c1C#N` was what?
Completion: false

Prompt: In this assay, the call recorded for `O=C(Nc1ccc(F)cc1F)c1cc(Cl)ccc1O` was what?
Completion: false

Prompt: In this assay, the call recorded for NS(=O)(=O)c1ccc(N2N=C3c4ccccc4CC3C2c2cccs2)cc1 (centres undefined) was what?
Completion: false

---

Provide the recorded TGI for the entries that follow.
# Tested on: SR leukemia
# procedure_details: NCI tumour cell line growth inhibition, 48 h

Prompt: // fetch SR leukemia TGI for CN(C)CCNC(=O)c1ccc(-c2nc3ccc4[nH]ncc4c3c3c2C2CCC3C2)cc1 (stereo not given)
Completion: 2.65 µM

Prompt: // fetch SR leukemia TGI for `O=c1c2ccccc2nc(-c2ccccc2)n1NC(=S)Nc1ccc(Cl)cc1`
Completion: > 100 µM

Prompt: // fetch SR leukemia TGI for `CCc1ccccc1NC(=O)/C=C/c1ccccc1`
Completion: > 100 µM

Prompt: // fetch SR leukemia TGI for `CN(C)c1ccc(/C=C/C(=O)N[C@@H]2C(=O)N3[C@@H]2SC(C)(C)[C@@H]3C(=O)O)cc1`
Completion: > 100 µM

Prompt: // fetch SR leukemia TGI for `O=C1C=C2CCC[C@H]3OC(=O)C[C@@]23CC1`
Completion: > 100 µM

---

# Tested on: HOP-62 NSCLC
# procedure_details: NCI tumour cell line growth inhibition, 48 h
outcome_measure: GI50

Prompt: So what does the record say about GI50 for `NS(=O)(=O)c1ccc(N=Nc2c(O)[nH]c3ccc(C(=O)NCc4ccncc4)cc23)cc1` ?
Completion: > 25000 nM

Prompt: So what does the record say about GI50 for `C1=C/COCc2cc(ccc2OCCN2CCCC2)Nc2nccc(n2)-c2ccc(o2)COC/1` ?
Completion: 2280 nM

Prompt: So what does the record say about GI50 for `c1cc(-c2nnc(SSc3ncnc4nc[nH]c34)o2)ccn1` ?
Completion: 2520 nM

Prompt: So what does the record say about GI50 for `Cc1cc(C)c2c(n1)sc1c(N)ncnc12` ?
Completion: > 25000 nM

Prompt: So what does the record say about GI50 for `CCOC(=O)c1c(C)n(Cc2ccc(Cl)cc2Cl)c2c1cc1oc(=O)c(=O)n3cnc2c13` ?
Completion: 15500 nM

Prompt: So what does the record say about GI50 for CCC(C)Oc1nc2c(c(=O)n(C)c(=O)n2C)n1C (centres undefined) ?
Completion: > 100000 nM

Prompt: So what does the record say about GI50 for `O=C(Nc1ccc(F)cc1F)c1cc(Cl)ccc1O` ?
Completion: 1200 nM

Prompt: So what does the record say about GI50 for `CC(C)c1nc(N(C)S(C)(=O)=O)nc(-c2ccc(F)cc2)c1/C=C/[C@@H](O)C[C@@H](O)CC(=O)O` ?
Completion: > 100000 nM

Prompt: So what does the record say about GI50 for `C=C/C(C)=C/C[C@]1(C)[C@H](C)[C@@H](OC(=O)CCC)[C@H](O)[C@@]23C(=C[C@H](OC)C[C@@H]12)[C@@H](OC(=O)CCC)O[C@H]3OC(C)=O` ?
Completion: 1620 nM
